The measurements presented in this section are drawn from patent US20170360911A1.

Target: T1, HLA-A*24:02 (human)
T1 construct: whole, on cells; Empty class I molecule on T2-A24 cells
Test: T2-A24 MHC class I stabilization, flow cytometry, anti-HLA-A24 17A10-FITC, peptide 100 ug/mL;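 also: peptide exposure stabilizes otherwise empty class I molecules on T2 cell surfaces, so surface class I level reflects how strongly the peptide binds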
PARAMETER_MEASURED: MFI (solvent ratio)

Would you please look over these solved cases?
[
  {
    "BINDER": "AILIQRQIDV [As35_10]",
    "RESULT": "1.1 ratio to solvent"
  },
  {
    "BINDER": "VLFGHVECLL [As83_10]",
    "RESULT": "2.8 ratio to solvent"
  },
  {
    "BINDER": "GYWLPSYKL [As63_9]",
    "RESULT": "1.2 ratio to solvent"
  }
]

Now take the following binder into account.
Query: Data request, read-out MFI (solvent ratio), for CYQLLLNHGA [As307_10]
Reply: 1.9 ratio to solvent
